Value source: patent US8076352B2

system: hypoxia-inducible endogenous VEGF expression in HeLa cells; test: Hypoxia-inducible endogenous VEGF expression, VEGF ELISA of conditioned media (dose-response EC50); assay type: cell-based; conditions: Homo sapiens, HeLa cells, hypoxic conditions (1% O2)
pEC50: −log10 of the molar value.
quantity-kind: pEC50

// worked examples, pEC50 included
O=C(Oc1ccc(F)cc1)N1CCc2c([nH]c3ccc(Cl)cc23)C1c1ccc(F)cc1 (stereo not shown) [Compound 452]	7.40 to 8.10
O=C(Oc1ccc(Cl)cc1)N1CCc2c([nH]c3ccc(Cl)cc23)C1c1ccc(O)cc1 (stereo not shown) [Compound 577]	6.70 to 7.40
O=C(Oc1ccc(F)cc1)N1CCc2c([nH]c3ccc(Cl)cc23)C1c1ccc(OCCCCCCCl)cc1 (stereo not shown) [Compound 723]	> 8.10
COc1ccc(OC(=O)N2CCc3c([nH]c4ccc(Cl)cc34)C2c2ccc(S(=O)(=O)N3CCOCC3)cc2)cc1 (stereo not shown) [Compound 455]	7.40 to 8.10
CC(=O)N1CCN(CC(O)COc2ccc(C3c4[nH]c5ccc(Cl)cc5c4CCN3C(=O)Oc3ccc(Cl)cc3)cc2)CC1 (stereo not shown) [Compound 415]	> 8.10

Exam item: Give the measured pEC50 for CCOC(=O)N1CCc2c([nH]c3ccc(Br)cc23)C1c1ccc(C(=O)N2CCCN(C)CC2)cc1 (stereo not shown) [Compound 484]
Marked response: 6.70 to 7.40

Exam item: Give the measured pEC50 for CCOC(=O)N1CCc2c([nH]c3ccc(Cl)cc23)C1c1ccc(C(=O)N2CCC(N3CCCC3)CC2)cc1 (stereo not shown) [Compound 527]
Marked response: 6.00 to 6.70

---

tested on: hypoxia-inducible endogenous VEGF expression in HeLa cells; test: Hypoxia-inducible endogenous VEGF expression, VEGF ELISA of conditioned media (dose-response EC50); assay type: cell-based; settings: Homo sapiens, HeLa cells, hypoxic conditions (1% O2)
pEC50: −log10 of the molar value.
Listed here: items and their measured pEC50.

O=C(Oc1ccc(Cl)cc1)N1CCc2c([nH]c3ccc(Cl)cc23)C1c1ccc(OCCCN2CCCC2)cc1 (stereo not shown) [Compound 429]	> 8.10
O=C(Oc1ccc(Cl)cc1)N1CCc2c([nH]c3ccc(Cl)cc23)C1c1ccc(OCCCCn2cncn2)cc1 (stereo not shown) [Compound 706]	> 8.10
CCOC(=O)N1CCc2c([nH]c3ccc(Cl)cc23)C1c1ccc(C(=O)NCC2COC(C)(C)O2)cc1 (stereo not shown) [Compound 461]	7.40 to 8.10

Field: next compound
Exam item: Give the measured pEC50 for O=C(Oc1ccc(Cl)cc1)N1CCc2c([nH]c3ccc(Cl)cc23)C1c1ccc(OCCCCNCCO)cc1 (stereo not shown) [Compound 699]
Marked response: 7.40 to 8.10

---

system: hypoxia-inducible endogenous VEGF expression in HeLa cells; test: Hypoxia-inducible endogenous VEGF expression, VEGF ELISA of conditioned media (dose-response EC50); assay type: cell-based; conditions: Homo sapiens, HeLa cells, hypoxic conditions (1% O2)
pEC50: −log10 of the molar value.
Listed here: items and their measured pEC50.

CCOC(=O)N1CCc2c([nH]c3ccc(Br)cc23)C1c1ccc(CNCCN2CCOCC2)cc1 (stereo not drawn) [Compound 535]	6.00 to 6.70
COc1ccc(C2c3[nH]c4ccc(Cl)cc4c3CCN2C(=O)Oc2ccc(F)cc2)cc1 (stereo not drawn) [Compound 401]	> 8.10

Field: next compound
Exam item: Give the measured pEC50 for C=CCOc1ccc(C2c3[nH]c4ccc(Cl)cc4c3CCN2C(=O)Oc2ccc(F)cc2)cc1 (stereo not drawn) [Compound 409]
Marked response: > 8.10

---

tested on: hypoxia-inducible endogenous VEGF expression in HeLa cells; experiment: Hypoxia-inducible endogenous VEGF expression, VEGF ELISA of conditioned media (dose-response EC50); type: cell-based; conditions: Homo sapiens, HeLa cells, hypoxic conditions (1% O2)
quantity-kind: EC50

// worked examples, EC50 included
CCOC(=O)N1CCc2c([nH]c3ccc(Cl)cc23)C1c1cnc(N(C)C)nc1 (stereo not drawn)	40 to 200 nM
O=C(Oc1ccc(F)cc1)N1CCc2c([nH]c3ccc(Cl)cc23)C1c1ccc(O)cc1 (stereo not drawn)	200 to 1000 nM
CCOC(=O)N1CCc2c([nH]c3ccc(Br)cc23)C1c1ccc(C(=O)NC)cc1 (stereo not drawn)	40 to 200 nM

Exam item: Give the measured EC50 for COC(=O)c1ccc(C2c3[nH]c4ccc(Br)cc4c3CCN2C(=O)Oc2ccc(F)cc2)cc1 (stereo not drawn)
Marked response: < 8 nM

Exam item: Give the measured EC50 for O=C(Oc1ccc(F)cc1)N1CCc2c([nH]c3ccc(Cl)cc23)C1c1ccc(OCCCCCCN2CCCC2)cc1 (stereo not drawn)
Marked response: < 8 nM

Exam item: Give the measured EC50 for CCOC(=O)N1CCc2c([nH]c3ccc(Cl)cc23)C1C(C)CC (stereo not drawn)
Marked response: 200 to 1000 nM

Exam item: Give the measured EC50 for Cc1ccc(OC(=O)N2CCc3c([nH]c4ccc(Cl)cc34)C2c2ccc(OCCCN(C)C)cc2)cc1 (stereo not drawn)
Marked response: 40 to 200 nM

Exam item: Give the measured EC50 for CC(=O)N1CCN(CC(O)COc2ccc(C3c4[nH]c5ccc(Cl)cc5c4CCN3C(=O)Oc3ccc(F)cc3)cc2)CC1 (stereo not drawn)
Marked response: < 8 nM

---

system: hypoxia-inducible endogenous VEGF expression in HeLa cells; assay: Hypoxia-inducible endogenous VEGF expression, VEGF ELISA of conditioned media (dose-response EC50); format: cell-based; details: Homo sapiens, HeLa cells, hypoxic conditions (1% O2)
Listed here: items and their measured EC50.

CN1CCN(CCCCCCOc2ccc(C3c4[nH]c5ccc(Cl)cc5c4CCN3C(=O)Oc3ccc(Cl)cc3)cc2)CC1 (stereo not shown)	8 to 40 nM

Exam item: Give the measured EC50 for CCOC(=O)N1CCc2c([nH]c3ccc(Cl)cc23)C1c1ccsc1 (stereo not shown)
Marked response: 40 to 200 nM

Exam item: Give the measured EC50 for COC(=O)c1ccc(C2c3[nH]c4ccc(Cl)cc4c3CCN2C(=O)Oc2ccc(Cl)cc2)cc1 (stereo not shown)
Marked response: < 8 nM

Exam item: Give the measured EC50 for O=C(Oc1ccccc1)N1CCc2c([nH]c3ccc(Cl)cc23)C1c1ccc(OCC(O)CO)cc1 (stereo not shown)
Marked response: 8 to 40 nM

---

Test system: hypoxia-inducible endogenous VEGF expression in HeLa cells
Assay: Hypoxia-inducible endogenous VEGF expression, VEGF ELISA of conditioned media (dose-response EC50)
Type: cell-based
Conditions: Homo sapiens, HeLa cells, hypoxic conditions (1% O2)
Excerpt: The ability of the compounds of the invention to modulate hypoxia-inducible endogenous VEGF expression may be analyzed as follows. VEGF protein levels may be monitored by an ELISA assay (R&D Systems). […] The conditioned media may then be assayed by ELISA, and the concentration of VEGF calculated from the standard ELISA curve of each assay. A dose-response analysis may be performed using the ELISA assay and conditions described above. […] A series of, e.g., seven different concentrations may be analyzed. […]
pEC50: −log10 of the molar value.
Listed here: items and their measured pEC50.

Exam item: Give the measured pEC50 for C=CCOc1ccc(C2c3[nH]c4ccc(Cl)cc4c3CCN2C(=O)OC(C)C)cc1 (stereo not shown) [Compound 408]
Marked response: > 8.10

Exam item: Give the measured pEC50 for CCOC(=O)N1CCc2c([nH]c3ccc(Cl)cc23)C1CC(C)(C)C (stereo not shown) [Compound 486]
Marked response: 6.70 to 7.40

Exam item: Give the measured pEC50 for CN(C)c1ncc(C2c3[nH]c4ccc(Cl)cc4c3CCN2C(=O)Oc2ccc(Cl)cc2)cn1 (stereo not shown) [Compound 475]
Marked response: 6.70 to 7.40

Exam item: Give the measured pEC50 for O=C(Oc1ccc(F)cc1)N1CCc2c([nH]c3ccc(Br)cc23)C1c1ccc(C(F)(F)F)cc1 (stereo not shown) [Compound 397]
Marked response: > 8.10

Exam item: Give the measured pEC50 for O=C(Oc1ccc(F)cc1)N1CCc2c([nH]c3ccc(Cl)cc23)C1c1ccc(OCCCCn2cncn2)cc1 (stereo not shown) [Compound 743]
Marked response: > 8.10

Exam item: Give the measured pEC50 for O=C(Oc1ccc(Cl)cc1)N1CCc2c([nH]c3ccc(Cl)cc23)C1c1ccc(OCCCCCCn2cncn2)cc1 (stereo not shown) [Compound 791]
Marked response: > 8.10

Exam item: Give the measured pEC50 for COCCOCCOc1ccc(C2c3[nH]c4ccc(Cl)cc4c3CCN2C(=O)Oc2ccccc2)cc1 (stereo not shown) [Compound 670]
Marked response: > 8.10

Exam item: Give the measured pEC50 for C=CCOc1ccc(C2c3[nH]c4ccc(Cl)cc4c3CCN2C(=O)OCCC)cc1 (stereo not shown) [Compound 406]
Marked response: > 8.10

Exam item: Give the measured pEC50 for CCOC(=O)N1CCc2c([nH]c3ccc(Cl)cc23)C1c1cccc(C(=O)NC)c1 (stereo not shown) [Compound 524]
Marked response: 6.00 to 6.70

Exam item: Give the measured pEC50 for CCOC(=O)N1CCc2c([nH]c3ccc(Cl)cc23)C1c1cnc(NC)nc1 (stereo not shown) [Compound 506]
Marked response: 6.70 to 7.40

Exam item: Give the measured pEC50 for CC(C)OC(=O)Nc1ccc(C2c3[nH]c4ccc(Cl)cc4c3CCN2C(=O)Oc2ccc(Cl)cc2)cc1 (stereo not shown) [Compound 489]
Marked response: 6.70 to 7.40

Exam item: Give the measured pEC50 for COCCCNCCCCOc1ccc(C2c3[nH]c4ccc(Cl)cc4c3CCN2C(=O)Oc2ccc(Cl)cc2)cc1 (stereo not shown) [Compound 701]
Marked response: 7.40 to 8.10

Exam item: Give the measured pEC50 for O=C(Oc1ccc(Cl)cc1)N1CCc2c([nH]c3ccc(Cl)cc23)C1c1ccc(OCCO)cc1 (stereo not shown) [Compound 571]
Marked response: 6.00 to 6.70

Exam item: Give the measured pEC50 for COc1ccc(OC(=O)N2CCc3c([nH]c4ccc(Br)cc34)C2c2cnc(N(C)C)nc2)cc1 (stereo not shown) [Compound 431]
Marked response: > 8.10

Exam item: Give the measured pEC50 for COCCOc1ccc(C2c3[nH]c4ccc(Cl)cc4c3CCN2C(=O)OC(C)C)cc1 (stereo not shown) [Compound 411]
Marked response: > 8.10

Exam item: Give the measured pEC50 for CCOC(=O)N1CCc2c([nH]c3ccc(Br)cc23)C1c1ccc(C(N)=O)cc1 (stereo not shown) [Compound 505]
Marked response: 6.70 to 7.40
